- assayTarget: Cannabinoid receptor 2 (Homo sapiens)
- test: Agonist activity at human recombinant cannabinoid CB2 receptor expressed in CHO cells by [35S]GTPgammaS binding assay
- Format: functional, cell-based
assayMetric: pEC50

> print(dat)
                              chemicalsmiles                            assaytarget  observedresult
 1                 c1ccc2nc(NC3CCCCC3)ccc2c1  Cannabinoid receptor 2 (Homo sapiens)             5.2
 2         FC(F)(F)c1cccc(Nc2nccc3ccccc23)c1  Cannabinoid receptor 2 (Homo sapiens)             5.8
 3         FC(F)(F)c1cccc(Nc2ncnc3ccccc23)c1  Cannabinoid receptor 2 (Homo sapiens)             5.6
 4                 Clc1ccccc1Nc1ccc2ccccc2n1  Cannabinoid receptor 2 (Homo sapiens)             5.2
 5  O=C(NC1CCCCC1)c1cnc(Nc2cccc(C(F)(F)F)c2)c2ccccc12  Cannabinoid receptor 2 (Homo sapiens)             5.7
 6                 COc1ccccc1Nc1ccc2ccccc2n1  Cannabinoid receptor 2 (Homo sapiens)             5.3
 7               COc1cccc(Nc2ccc3ccccc3n2)c1  Cannabinoid receptor 2 (Homo sapiens)             5.6
 8                 c1ccc(Sc2ccc3ccccc3n2)cc1  Cannabinoid receptor 2 (Homo sapiens)             5.4
 9         FC(F)(F)c1cccc(Nc2cnc3ccccc3n2)c1  Cannabinoid receptor 2 (Homo sapiens)             5.4
10               Clc1ccc(Nc2ccc3ccccc3n2)cc1  Cannabinoid receptor 2 (Homo sapiens)             5.7
11               Brc1cccc(Nc2ccc3ccccc3n2)c1  Cannabinoid receptor 2 (Homo sapiens)             5.7
12               COc1ccc(Nc2ccc3ccccc3n2)cc1  Cannabinoid receptor 2 (Homo sapiens)             5.7
13  O=C(NCC1CCCCC1)c1cnc(Nc2cccc(C(F)(F)F)c2)c2ccccc12  Cannabinoid receptor 2 (Homo sapiens)             5.8
14         FC(F)(F)c1cccc(Nc2ccnc3ccccc23)c1  Cannabinoid receptor 2 (Homo sapiens)             5.5
15               Clc1cccc(Nc2ccc3ccccc3n2)c1  Cannabinoid receptor 2 (Homo sapiens)             5.6
16  O=C(c1cnc(Nc2cccc(C(F)(F)F)c2)c2ccccc12)N1CCOCC1  Cannabinoid receptor 2 (Homo sapiens)             7.8
17         FC(F)(F)c1cccc(Nc2ccc3ccccc3n2)c1  Cannabinoid receptor 2 (Homo sapiens)             5.9
18           FC(F)(F)c1ccccc1Nc1ccc2ccccc2n1  Cannabinoid receptor 2 (Homo sapiens)             5.2
19         FC(F)(F)c1cccc(Nc2ncc3ccccc3n2)c1  Cannabinoid receptor 2 (Homo sapiens)             5.5

The measurements presented in this section are drawn from ChEMBL document CHEMBL1641511.
